Recorded values, source the supplement of paper PMC3545927.

Tested on: furin, P09958;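 further: purified furin at 1:10 enzyme:substrate in 50 mM HEPES pH 7.5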
Sequence (P09958 whole entry): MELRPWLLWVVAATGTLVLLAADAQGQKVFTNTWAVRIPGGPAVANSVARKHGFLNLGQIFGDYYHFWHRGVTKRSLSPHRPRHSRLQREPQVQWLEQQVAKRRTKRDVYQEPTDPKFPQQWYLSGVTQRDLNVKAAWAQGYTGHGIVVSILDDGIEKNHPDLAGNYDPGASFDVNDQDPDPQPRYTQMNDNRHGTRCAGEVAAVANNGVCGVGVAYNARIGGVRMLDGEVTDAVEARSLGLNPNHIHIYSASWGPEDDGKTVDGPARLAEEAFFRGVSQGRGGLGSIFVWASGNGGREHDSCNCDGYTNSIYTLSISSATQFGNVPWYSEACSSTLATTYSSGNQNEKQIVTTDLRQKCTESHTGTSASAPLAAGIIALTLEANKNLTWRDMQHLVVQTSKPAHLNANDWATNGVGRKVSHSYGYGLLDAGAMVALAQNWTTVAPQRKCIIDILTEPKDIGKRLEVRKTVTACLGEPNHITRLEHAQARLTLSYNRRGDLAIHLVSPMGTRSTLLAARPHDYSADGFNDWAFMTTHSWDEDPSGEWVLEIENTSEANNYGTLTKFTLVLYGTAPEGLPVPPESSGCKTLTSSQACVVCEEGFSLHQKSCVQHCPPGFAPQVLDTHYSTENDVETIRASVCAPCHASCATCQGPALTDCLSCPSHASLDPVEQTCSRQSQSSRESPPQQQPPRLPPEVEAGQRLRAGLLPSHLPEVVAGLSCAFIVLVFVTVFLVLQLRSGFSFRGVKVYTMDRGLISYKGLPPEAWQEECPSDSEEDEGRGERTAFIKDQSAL
Assay overview: furin cleavage Z-score vs untreated control; higher = more cleavage, active = 3.5 or more, inactive = 1 or less, 8 variable residues between constant flanks
Measurement context: 15 min
The other results are listed elsewhere or left out. The true hit rate is not given.
Reported furin cleavage Z-score values are given for each entry in this list.
Give the value as a plain number.

Some solved cases for reference:
# Sequence chain, furin cleavage Z-score
records = [
    ("CARPRRSTSPAGNASASA [FS-3026]", 9.5),
    ("CAEETTPCSGAGNASASA [HC1972]", -1.71),
]

Incoming: Note furin cleavage Z-score for the sequence shown: CARDLAVAVEAGNASASA [HC643]
Outgoing: -0.796

Incoming: Let me know recorded furin cleavage Z-score for CAEGCGWAGWAGNASASA [HC205] , thanks.
Outgoing: 1.45

Incoming: Give furin cleavage Z-score for the following sequence: CARPRRSPAQAGNASASA [FS-1764]
Outgoing: 11

Incoming: Tell me furin cleavage Z-score reported for CARDRRQATEAGNASASA [FS-1692]
Outgoing: 4.98

Incoming: Report furin cleavage Z-score for CARPRRRYYPAGNASASA [FS-1763]
Outgoing: 0.798
